experiment: modulators of CIT2-GFP expression in yeast, primary screen, S. cerevisiae, GFP fusion, multiplex flow cytometry, MLPCN library (AID 2029);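 also: ratio of well median GFP fluorescence to mean of DMSO wells on the plate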; settings: S. cerevisiae CIT2-GFP strain, 3 h, at 10 µM, 100 means same as DMSO wells
About 210 (0.066%) of roughly 320,000 compounds were called active.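 The calls were made as follows: active = GFP response relative to DMSO above a set limit, near the screen mean plus 3 SD (cut at about 150% in these data); inconclusive = Fewer than 70 cells measured for a yeast strain; inactive = the rest.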 The list comes from a sample in which actives are over-represented; it also holds close analogues and randomly drawn compounds.
# valid calls are y for active, n for inactive; nothing else

# count of solved cases: 8
Task: What did this assay record as the result for CCN1/C(=C/c2ccc3ccc(C)cc3[n+]2CC)Sc2ccccc21 ?
Result: y

Task: Would you kindly repeat that for COc1ccc(NC(=O)CN(Cc2ccccc2)S(C)(=O)=O)cc1OC ?
Result: n

Task: Would you kindly repeat that for C#CCN(N(C)c1ncc(C(F)(F)F)cc1Cl)S(=O)(=O)c1ccc2ccccc2c1 ?
Result: n

Task: Would you kindly repeat that for O=c1[nH]c(CN2CCN(S(=O)(=O)c3ccc4c(c3)OCCO4)CC2)nc2sc3c(c12)CCCC3 ?
Result: n

Task: Would you kindly repeat that for OCCN1CCOCCOCCN(CCO)CCN(CCO)CC1 ?
Result: n

Task: Would you kindly repeat that for Cc1ccc2nc(N(CCN(C)C)C(=O)C3=COCCO3)sc2c1 ?
Result: y

Task: Would you kindly repeat that for COc1cc(CO)c(C2(CO)CCCC2)cc1OC ?
Result: n

Task: Would you kindly repeat that for Cc1cccc([C@@H]2[C@@H]3C(=O)N(C)C(=O)[C@@H]3[C@@H]3C(=O)Nc4ccccc4C(=O)N23)c1 ?
Result: n

Next:
Task: What did this assay record as the result for Cc1cc(C)cc(NS(=O)(=O)c2ccc(Oc3ncc(C(F)(F)F)cc3Cl)cc2)c1 ?
Result: n

Task: Would you kindly repeat that for CCCCCc1nnc(NC(=O)c2ccc(=O)n(C)n2)s1 ?
Result: n

Task: Would you kindly repeat that for O=C(O)CC(SCC(=O)Nc1ccc(Br)cc1)C(=O)O (centres undefined) ?
Result: n

* * *

Answer each item with its documented GFP response vs DMSO.
test: modulators of CIT2-GFP expression in yeast, primary screen, S. cerevisiae, GFP fusion, multiplex flow cytometry, MLPCN library (AID 2029);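 also: ratio of well median GFP fluorescence to mean of DMSO wells on the plate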; conditions: S. cerevisiae CIT2-GFP strain, 3 h, at 10 µM, hits give high values, 100 means same as DMSO wells
About 210 (0.066%) of roughly 320,000 compounds were called active. The sample as a whole holds a higher share of actives than the screen did.
Give bare numbers, in %.

Task: What value of GFP response vs DMSO has been recorded for this entry: Cc1cccc(CSc2ccc(-c3cccs3)nn2)c1
Result: 87.4

Task: Would you kindly repeat that for CNc1nc(SC)nc(N(C#N)CC(=O)OC)n1 ?
Result: 104

Task: Would you kindly repeat that for COc1cc([N+](=O)[O-])cc([N+](=O)[O-])c1NC(=O)N1CCOCC1 ?
Result: 110

Task: Would you kindly repeat that for Cc1cc(NC(=O)/C=C/C(=O)N(CC(=O)NC2CCCC2)c2ccc(F)cc2)no1 ?
Result: 96.7

Task: Would you kindly repeat that for CCOc1ccc(NS(=O)(=O)c2ccc(C)c(C(N)=O)c2)cc1 ?
Result: 94

Next:
Task: What value of GFP response vs DMSO has been recorded for this entry: CC(C)(C)CN1C(=O)C(=O)NC[C@H]1Cc1cccc2ccccc12
Result: 101

* * *

Answer each item with its documented GFP response vs DMSO.
experiment: modulators of CIT2-GFP expression in yeast, primary screen, S. cerevisiae, GFP fusion, multiplex flow cytometry, MLPCN library (AID 2029);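 also: ratio of well median GFP fluorescence to mean of DMSO wells on the plate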; conditions: S. cerevisiae CIT2-GFP strain, 3 h, at 10 µM, hits give high values, 100 means same as DMSO wells
The campaign covered roughly 320,000 compounds. About 210 (0.066%) were called active. What follows is part of a selection rich in actives, with near analogues and random picks from the rest.
Give bare numbers, in %.

Worked set:
Task: What value of GFP response vs DMSO has been recorded for this entry: COc1ccc(-n2nnc3c(=O)n(CC(=O)N4CCC(Cc5ccccc5)CC4)cnc32)cc1
Result: 89.3

Task: Would you kindly repeat that for COc1ccc(-c2cc(=O)oc3cc(OCC(=O)N[C@@H](Cc4c[nH]c5ccccc45)C(=O)O)ccc23)cc1 ?
Result: 110

Task: Would you kindly repeat that for COc1ccc(NC(=O)CCn2ccnc2)c(OC)c1 ?
Result: 106

Task: Would you kindly repeat that for Cc1c(NC(=O)CSCc2ccccc2)cccc1C(=O)O ?
Result: 106

Task: Would you kindly repeat that for CCc1n[nH]c(=S)n1/N=C/c1c[nH]c2ccc(Br)cc12 ?
Result: 106

Task: Would you kindly repeat that for CCN(CC(=O)Nc1c(F)cccc1F)C(=O)CN1c2cccc3cccc(c23)S1(=O)=O ?
Result: 104

For each entry beneath this line, provide reported GFP response vs DMSO.
1. CCCCn1c(N)c(N2CCOCC2)c(=O)n(CC(=O)NCCc2ccccc2)c1=O
2. CC1CCC(C(C)C)C(=O)/C1=C\c1ccc(NC(=O)CCC(=O)O)cc1 (centres undefined)
3. COc1ccc(C(=O)COC(=O)c2c(C)noc2C)cc1Cl
4. CN1CCC(=NNC(=O)CN(c2cccc(Cl)c2)S(C)(=O)=O)CC1
5. COc1ccc(CNS(=O)(=O)c2cc(-c3cc(C)no3)ccc2C(C)C)cc1
6. COc1ccc(S(=O)(=O)NCCOc2ccccc2)cc1F
7. COC(=O)C[n+]1cccc2ccccc21
8. COc1ccc(/C=C(\C#N)c2c[nH]c3ccccc23)cc1

Result:
1. 105
2. 103
3. 98.9
4. 95.2
5. 95.4
6. 94.3
7. 175
8. 79.6

* * *

assay: modulators of CIT2-GFP expression in yeast, primary screen, S. cerevisiae, GFP fusion, multiplex flow cytometry, MLPCN library (AID 2029);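 also: ratio of well median GFP fluorescence to mean of DMSO wells on the plate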; conditions: S. cerevisiae CIT2-GFP strain, 3 h, at 10 µM, 100 means same as DMSO wells
In all, about 320,000 compounds went through this assay and about 210 (0.066%) were called active.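 Rule for the calls: active = GFP response relative to DMSO above a set limit, near the screen mean plus 3 SD (cut at about 150% in these data); inconclusive = Fewer than 70 cells measured for a yeast strain; inactive = the rest.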 This is one part of a sample in which actives are shown more often than they occur.
# valid calls are label 1 (active), label 0 (inactive); nothing else

# count of solved cases: 3
Task: What did this assay record as the result for CCOC(=O)Cn1c(=O)oc2cc(S(=O)(=O)N(C)Cc3ccco3)ccc21 ?
Result: label 0

Task: Would you kindly repeat that for CCN(CC)S(=O)(=O)c1ccc(OC(C)C)c(N)c1 ?
Result: label 0

Task: Would you kindly repeat that for CN(c1ccccc1)c1ccc(/C=c2\s/c(=C(/C#N)C(=O)C(C)(C)C)n(Cc3ccco3)c2=O)cc1 ?
Result: label 1

Next:
Task: What did this assay record as the result for COc1ccccc1C(CNC(=O)c1ccc(C)c(S(=O)(=O)N2CCCCC2)c1)N(C)C (stereo not given) ?
Result: label 0

Task: Would you kindly repeat that for CN1CCN(C(=O)C(=O)c2cn(CC(=O)N3CCCC3)c3ccccc23)CC1 ?
Result: label 0

* * *

experiment: modulators of CIT2-GFP expression in yeast, primary screen, S. cerevisiae, GFP fusion, multiplex flow cytometry, MLPCN library (AID 2029);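 also: ratio of well median GFP fluorescence to mean of DMSO wells on the plate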; details: S. cerevisiae CIT2-GFP strain, 3 h, at 10 µM, 100 means same as DMSO wells
The whole screen tested about 320,000 compounds, of which about 210 (0.066%) were called active.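 The calls were made as follows: active = GFP response relative to DMSO above a set limit, near the screen mean plus 3 SD (cut at about 150% in these data); inconclusive = Fewer than 70 cells measured for a yeast strain; inactive = the rest.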 Only a selection was taken, and actives are over-represented in it overall.
# valid calls are TRUE = active, FALSE = inactive; nothing else

# count of solved cases: 6
Task: What did this assay record as the result for O=C(COC(=O)C12CC3CC(CC(O)(C3)C1)C2)NC12CC3CC(CC(C3)C1)C2 ?
Result: FALSE

Task: Would you kindly repeat that for COc1ccc(C(=O)NC2CC2)cc1OC1CCN(Cc2ccc(SC)cc2)CC1 ?
Result: FALSE

Task: Would you kindly repeat that for Cc1nc(-c2ccc(F)cc2)c(CC(=O)Nc2cc(S(=O)(=O)N3CCCCC3)ccc2C)s1 ?
Result: FALSE

Task: Would you kindly repeat that for C/C(CCC(=O)OC[C@H]1O[C@H](C#Cc2ccccc2)C=C[C@@H]1Oc1ccc(C)cc1)=N\OC[C@@H](O)[C@H]1O[C@@H]2OC(C)(C)O[C@@H]2[C@H]1O ?
Result: FALSE

Task: Would you kindly repeat that for COc1ccccc1N1CCN(CC(=O)Nc2ccnn2C2CCCC2)CC1 ?
Result: FALSE

Task: Would you kindly repeat that for CC[n+]1cc(C)ccc1/C=C/c1ccc(N(C)C)cc1 ?
Result: TRUE

Next:
Task: What did this assay record as the result for Cc1cc(C)cc(NS(=O)(=O)Cc2ccccc2)c1 ?
Result: FALSE

Task: Would you kindly repeat that for CC1(C)CC(CNCCC(c2ccc(F)cc2)c2ccco2)CCO1 (stereo not drawn) ?
Result: FALSE

Task: Would you kindly repeat that for Cc1noc(NS(=O)(=O)c2ccc(N3CC(O)=C(c4ccccc4)C3=N)cc2)c1C ?
Result: FALSE

Task: Would you kindly repeat that for CCOc1cccc(-c2nnc(SCC(=O)NC3CC3)n2C)c1 ?
Result: FALSE
